Target: T1, human LAP-TGFB1 Fc fusion (human)
T1 construct: also called human LAP-TGFβ1-Fc; human LAP-TGFβ-Fc isoform 1
T1 sequence (chain, as listed by the source limits assumed): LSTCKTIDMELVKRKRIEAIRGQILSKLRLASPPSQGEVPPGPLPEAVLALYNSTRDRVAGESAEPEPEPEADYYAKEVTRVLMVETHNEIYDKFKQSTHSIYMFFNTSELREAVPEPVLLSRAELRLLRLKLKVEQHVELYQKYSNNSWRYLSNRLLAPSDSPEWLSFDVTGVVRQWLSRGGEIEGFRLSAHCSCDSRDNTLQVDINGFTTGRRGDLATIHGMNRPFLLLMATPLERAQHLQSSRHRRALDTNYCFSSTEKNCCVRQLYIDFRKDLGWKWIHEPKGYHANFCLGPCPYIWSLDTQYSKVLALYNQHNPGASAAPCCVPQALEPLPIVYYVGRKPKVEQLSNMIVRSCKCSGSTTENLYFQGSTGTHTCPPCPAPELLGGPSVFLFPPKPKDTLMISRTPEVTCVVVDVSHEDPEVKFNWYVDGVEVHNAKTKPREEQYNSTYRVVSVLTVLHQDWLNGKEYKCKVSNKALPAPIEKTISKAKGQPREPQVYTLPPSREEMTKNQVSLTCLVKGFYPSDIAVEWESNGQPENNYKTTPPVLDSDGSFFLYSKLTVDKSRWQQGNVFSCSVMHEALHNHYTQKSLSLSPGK
Assay: SPR pH 7.4, antigen captured on Fab 54BLH
Can you tell me kon for the items I'm about to list?

Solved entries:
66BLH (Fab, V domains shown, also called 18BLM Fab) VH: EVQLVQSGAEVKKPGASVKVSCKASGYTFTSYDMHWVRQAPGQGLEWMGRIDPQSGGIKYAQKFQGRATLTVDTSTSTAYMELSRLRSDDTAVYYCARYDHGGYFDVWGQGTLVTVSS VL: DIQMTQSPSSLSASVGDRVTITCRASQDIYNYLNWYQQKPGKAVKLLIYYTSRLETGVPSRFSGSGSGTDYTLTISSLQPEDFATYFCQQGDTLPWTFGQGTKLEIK; 5.76e+06 M⁻¹ s⁻¹
55BLH (Fab, V domains shown, also called 07BLM Fab) VH: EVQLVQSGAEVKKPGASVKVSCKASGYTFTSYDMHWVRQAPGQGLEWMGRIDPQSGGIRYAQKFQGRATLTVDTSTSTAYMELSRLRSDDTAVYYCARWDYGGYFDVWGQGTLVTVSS VL: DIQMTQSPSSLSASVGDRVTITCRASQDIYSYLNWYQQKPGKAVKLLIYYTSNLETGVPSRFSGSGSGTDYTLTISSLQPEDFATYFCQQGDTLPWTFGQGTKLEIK; 8.75e+06 M⁻¹ s⁻¹
60BLH (Fab, V domains shown, also called 12BLM Fab) VH: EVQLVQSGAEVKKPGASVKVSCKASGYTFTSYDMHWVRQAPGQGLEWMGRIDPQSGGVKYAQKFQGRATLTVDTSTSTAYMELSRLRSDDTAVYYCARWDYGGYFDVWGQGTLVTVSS VL: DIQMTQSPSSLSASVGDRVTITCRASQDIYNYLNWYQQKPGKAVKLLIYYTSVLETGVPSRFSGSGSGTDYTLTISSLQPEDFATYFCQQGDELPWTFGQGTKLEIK; 9.65e+06 M⁻¹ s⁻¹
11BLM (antibody, human IgG1, kappa, L234A L235A, V domains shown, IgG1 L234A L235A D265S/kappa; also called 74BLH; 47BMD) VH: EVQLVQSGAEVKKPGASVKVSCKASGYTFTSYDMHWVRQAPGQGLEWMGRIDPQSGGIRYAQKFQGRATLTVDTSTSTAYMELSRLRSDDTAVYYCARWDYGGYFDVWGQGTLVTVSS VL: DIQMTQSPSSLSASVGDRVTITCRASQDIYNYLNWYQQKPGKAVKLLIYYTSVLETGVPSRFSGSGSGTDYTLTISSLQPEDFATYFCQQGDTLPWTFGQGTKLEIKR; 1.47e+07 M⁻¹ s⁻¹
59BLH (Fab, V domains shown, also called 11BLM Fab) VH: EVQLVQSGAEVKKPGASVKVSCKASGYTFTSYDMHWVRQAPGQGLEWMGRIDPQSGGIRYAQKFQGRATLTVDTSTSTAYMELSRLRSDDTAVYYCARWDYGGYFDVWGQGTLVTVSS VL: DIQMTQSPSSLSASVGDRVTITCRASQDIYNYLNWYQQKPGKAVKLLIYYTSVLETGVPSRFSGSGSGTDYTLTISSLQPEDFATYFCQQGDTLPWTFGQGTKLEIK; 1.31e+07 M⁻¹ s⁻¹
54BLH (Fab, V domains shown, also called 06BLM Fab) VH: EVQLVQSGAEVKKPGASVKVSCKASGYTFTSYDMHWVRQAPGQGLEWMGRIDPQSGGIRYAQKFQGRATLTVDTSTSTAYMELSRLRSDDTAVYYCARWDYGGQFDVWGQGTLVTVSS VL: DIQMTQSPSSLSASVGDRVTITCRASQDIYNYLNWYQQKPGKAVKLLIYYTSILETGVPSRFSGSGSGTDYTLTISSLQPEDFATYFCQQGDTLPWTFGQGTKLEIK; 7.03e+06 M⁻¹ s⁻¹
15BLM (antibody, human IgG1, kappa, L234A L235A, V domains shown, IgG1 L234A L235A D265S/kappa; also called 78BLH; 51BMD) VH: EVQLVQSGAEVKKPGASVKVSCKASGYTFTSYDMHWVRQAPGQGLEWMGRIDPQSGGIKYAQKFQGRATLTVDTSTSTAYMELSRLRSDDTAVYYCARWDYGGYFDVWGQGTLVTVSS VL: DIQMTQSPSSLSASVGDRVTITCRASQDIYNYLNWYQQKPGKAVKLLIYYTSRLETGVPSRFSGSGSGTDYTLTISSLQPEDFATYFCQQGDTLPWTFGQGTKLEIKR; 2.22e+07 M⁻¹ s⁻¹
19BLM (antibody, human IgG1, kappa, L234A L235A, V domains shown, IgG1 L234A L235A D265S/kappa; also called 82BLH; 55BMD) VH: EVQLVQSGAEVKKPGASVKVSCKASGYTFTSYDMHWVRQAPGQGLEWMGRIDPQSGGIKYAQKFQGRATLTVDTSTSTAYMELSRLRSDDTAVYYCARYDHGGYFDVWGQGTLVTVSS VL: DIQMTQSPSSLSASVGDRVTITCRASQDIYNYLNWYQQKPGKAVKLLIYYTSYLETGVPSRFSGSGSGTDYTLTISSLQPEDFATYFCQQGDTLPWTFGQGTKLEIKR; 7.82e+07 M⁻¹ s⁻¹
18BLM (antibody, human IgG1, kappa, L234A L235A, V domains shown, IgG1 L234A L235A D265S/kappa; also called 81BLH; 54BMD) VH: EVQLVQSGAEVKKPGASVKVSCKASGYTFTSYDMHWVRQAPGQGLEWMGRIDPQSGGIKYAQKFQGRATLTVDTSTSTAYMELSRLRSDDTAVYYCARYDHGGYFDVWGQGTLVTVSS VL: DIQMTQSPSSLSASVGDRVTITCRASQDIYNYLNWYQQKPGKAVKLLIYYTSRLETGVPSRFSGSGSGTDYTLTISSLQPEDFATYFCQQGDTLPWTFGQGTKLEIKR; 5.4e+06 M⁻¹ s⁻¹

Query block: Given 16BLM (antibody, human IgG1, kappa, L234A L235A, V domains shown, IgG1 L234A L235A D265S/kappa; also called 79BLH; 52BMD) VH: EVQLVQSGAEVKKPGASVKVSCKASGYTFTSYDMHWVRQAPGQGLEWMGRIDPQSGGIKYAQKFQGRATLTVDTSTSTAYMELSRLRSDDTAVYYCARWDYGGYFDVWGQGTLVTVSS VL: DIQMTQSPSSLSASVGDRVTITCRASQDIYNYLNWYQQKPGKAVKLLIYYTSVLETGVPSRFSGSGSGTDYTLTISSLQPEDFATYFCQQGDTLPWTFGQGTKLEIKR , state its recorded kon.
Result block: 1.44e+07 M⁻¹ s⁻¹
